- assay-method-text: Plasma clearance in rat at 2 mg/kg, iv
- Type: ADME, organism-based
measurement-name: clearance
Kindly report the value followed by its unit.

Ask | Consider the compound CNC(=O)c1ccc(-c2cc(Cl)cc(Cl)c2Cl)c(N)n1 and give its measured clearance.
Reply | 11.7 mL/min/kg

* * *

- target: Sodium channel protein type 2 subunit alpha (Homo sapiens)
- assay-method-text: Inhibition of human Nav1.2 expressed in HEK293 cells by IonWorks Quattro selectivity assay
- Format: cell-based
measurement-name: IC50 (µM)
The reply should contain only the number, in µM.

Ask | Param readout= IC50; system= Sodium channel protein type 2 subunit alpha (Homo sapiens); entry= CNC(=O)c1ccc(-c2cc(Cl)cc(Cl)c2Cl)c(N)n1 ; returns value.
Reply | 12.8

* * *

- assay-method-text: Oral bioavailability in dog at 0.25 mg/kg
- Type: ADME, organism-based, Canis lupus familiaris
- condition-context: in vivo
measurement-name: bioavailability (%)
The reply should contain only the number, in %.

Ask | Consider the molecule Cc1nocc1C(=O)Nc1ccc(-c2ccccc2OC(F)(F)F)c(N)n1 and give its measured bioavailability.
Reply | 63

* * *

- assay-method-text: Plasma clearance in rat at 5 mg/kg, po
- Type: ADME, organism-based
measurement-name: CL/F
Kindly report the value followed by its unit.

Ask | Consider the compound CNC(=O)c1ccc(-c2cc(Cl)cc(Cl)c2Cl)c(N)n1 and give its measured CL/F.
Reply | 13.3 mL/min/kg

* * *

- assay-method-text: Tmax in rat at 5 mg/kg, po
- Format: ADME, organism-based
- condition-context: in vivo
measurement-name: Tmax

Ask | Consider the compound CNC(=O)c1ccc(-c2cc(Cl)cc(Cl)c2Cl)c(N)n1 and give its measured Tmax.
Reply | 1 h

* * *

- target: Sodium channel protein type 2 subunit alpha (Homo sapiens, UniProt Q99250)
- Sequence (Q99250 whole entry): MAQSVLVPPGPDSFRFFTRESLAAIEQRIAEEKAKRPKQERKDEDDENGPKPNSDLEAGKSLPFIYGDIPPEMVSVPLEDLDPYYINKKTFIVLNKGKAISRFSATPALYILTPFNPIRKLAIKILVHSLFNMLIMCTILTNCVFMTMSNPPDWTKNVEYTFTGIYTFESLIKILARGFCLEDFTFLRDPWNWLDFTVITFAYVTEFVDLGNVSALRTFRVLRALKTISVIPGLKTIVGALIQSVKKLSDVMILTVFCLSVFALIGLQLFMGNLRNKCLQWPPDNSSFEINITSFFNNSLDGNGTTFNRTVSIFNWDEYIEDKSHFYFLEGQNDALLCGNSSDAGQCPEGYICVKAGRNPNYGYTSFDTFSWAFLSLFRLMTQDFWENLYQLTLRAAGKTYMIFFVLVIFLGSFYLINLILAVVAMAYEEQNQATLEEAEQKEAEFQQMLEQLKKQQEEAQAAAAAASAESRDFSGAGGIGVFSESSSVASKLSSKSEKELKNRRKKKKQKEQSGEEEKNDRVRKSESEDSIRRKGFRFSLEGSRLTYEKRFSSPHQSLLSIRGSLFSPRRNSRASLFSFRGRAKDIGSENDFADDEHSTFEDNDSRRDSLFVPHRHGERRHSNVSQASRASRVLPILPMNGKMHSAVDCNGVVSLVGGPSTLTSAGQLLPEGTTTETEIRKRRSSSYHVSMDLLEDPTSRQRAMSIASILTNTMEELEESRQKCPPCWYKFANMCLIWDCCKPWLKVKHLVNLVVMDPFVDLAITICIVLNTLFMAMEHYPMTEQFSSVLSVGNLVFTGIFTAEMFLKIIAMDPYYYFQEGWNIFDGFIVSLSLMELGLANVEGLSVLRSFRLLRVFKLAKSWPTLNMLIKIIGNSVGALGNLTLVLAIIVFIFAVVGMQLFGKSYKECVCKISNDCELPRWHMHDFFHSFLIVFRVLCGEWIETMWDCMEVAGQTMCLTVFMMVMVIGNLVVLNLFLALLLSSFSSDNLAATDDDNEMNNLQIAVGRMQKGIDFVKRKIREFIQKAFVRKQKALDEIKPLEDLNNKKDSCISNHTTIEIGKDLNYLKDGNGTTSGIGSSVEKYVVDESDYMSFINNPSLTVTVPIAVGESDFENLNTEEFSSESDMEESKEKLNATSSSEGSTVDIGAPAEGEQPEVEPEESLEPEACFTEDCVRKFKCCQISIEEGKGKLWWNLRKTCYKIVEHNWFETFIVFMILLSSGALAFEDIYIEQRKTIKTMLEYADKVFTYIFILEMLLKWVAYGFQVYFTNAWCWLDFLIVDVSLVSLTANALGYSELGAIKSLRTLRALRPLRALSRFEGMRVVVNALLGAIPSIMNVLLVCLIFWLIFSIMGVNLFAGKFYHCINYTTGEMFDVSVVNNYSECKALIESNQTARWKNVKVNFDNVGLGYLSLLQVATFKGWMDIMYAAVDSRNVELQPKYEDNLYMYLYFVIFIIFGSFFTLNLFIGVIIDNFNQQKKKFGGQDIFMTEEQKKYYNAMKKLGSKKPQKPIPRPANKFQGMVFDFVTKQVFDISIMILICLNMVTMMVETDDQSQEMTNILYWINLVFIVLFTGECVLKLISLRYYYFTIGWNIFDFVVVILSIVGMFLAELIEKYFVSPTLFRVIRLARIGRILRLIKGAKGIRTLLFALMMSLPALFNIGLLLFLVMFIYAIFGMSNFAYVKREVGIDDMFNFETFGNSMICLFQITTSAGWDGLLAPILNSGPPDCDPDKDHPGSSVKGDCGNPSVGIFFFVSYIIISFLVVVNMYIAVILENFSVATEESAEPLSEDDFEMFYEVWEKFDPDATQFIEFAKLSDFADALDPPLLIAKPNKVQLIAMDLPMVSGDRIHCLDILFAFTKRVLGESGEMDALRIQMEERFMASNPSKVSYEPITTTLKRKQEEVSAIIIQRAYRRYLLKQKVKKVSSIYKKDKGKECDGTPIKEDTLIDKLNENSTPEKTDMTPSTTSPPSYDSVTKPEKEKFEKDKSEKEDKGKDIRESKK
- assay-method-text: Inhibition of human Nav1.2 expressed in SHSY5Y cells by IonWorks Quattro selectivity assay
- Assay type: cell-based, SH-SY5Y
measurement-name: pIC50
Please report pIC50 as the negative decimal logarithm of the molar concentration, giving only the number.

Ask | Consider the compound Cc1nocc1C(=O)Nc1ccc(-c2ccccc2OC(F)(F)F)c(N)n1 and give its measured pIC50.
Reply | 5.00

* * *

- assay-method-text: Unbound plasma concentration in Sprague-Dawley rat at 40 mg/kg single dose
- Type: ADME, organism-based
measurement-name: fraction unbound
Number only, no unit.

Ask | Consider the compound COc1ccc(Cl)c(-c2ccc(NC(=O)c3ccnn3C)nc2N)c1 and give its measured fraction unbound.
Reply | 0.2

* * *

- assay-method-text: Intrinsic clearance in human liver microsomes
- Assay type: ADME
- condition-context: read-out: CLH
measurement-name: microsomal CLint (µL/min/mg)
The reply should contain only the number, in µL/min/mg.

# smiles-text, microsomal CLint, µL/min/mg
records = [
    ("CC(=O)Nc1ccc(-c2cc(Cl)cc(Cl)c2Cl)c(N)n1", 41),
]

Attention now shifts to the item below.
Ask | Consider the molecule CNC(=O)c1ccc(-c2cc(Cl)cc(Cl)c2Cl)c(N)n1 and give its measured microsomal CLint.
Reply | 7.1

* * *

- target: Sodium channel protein type 10 subunit alpha (Homo sapiens)
- Sequence (Q9Y5Y9 whole entry): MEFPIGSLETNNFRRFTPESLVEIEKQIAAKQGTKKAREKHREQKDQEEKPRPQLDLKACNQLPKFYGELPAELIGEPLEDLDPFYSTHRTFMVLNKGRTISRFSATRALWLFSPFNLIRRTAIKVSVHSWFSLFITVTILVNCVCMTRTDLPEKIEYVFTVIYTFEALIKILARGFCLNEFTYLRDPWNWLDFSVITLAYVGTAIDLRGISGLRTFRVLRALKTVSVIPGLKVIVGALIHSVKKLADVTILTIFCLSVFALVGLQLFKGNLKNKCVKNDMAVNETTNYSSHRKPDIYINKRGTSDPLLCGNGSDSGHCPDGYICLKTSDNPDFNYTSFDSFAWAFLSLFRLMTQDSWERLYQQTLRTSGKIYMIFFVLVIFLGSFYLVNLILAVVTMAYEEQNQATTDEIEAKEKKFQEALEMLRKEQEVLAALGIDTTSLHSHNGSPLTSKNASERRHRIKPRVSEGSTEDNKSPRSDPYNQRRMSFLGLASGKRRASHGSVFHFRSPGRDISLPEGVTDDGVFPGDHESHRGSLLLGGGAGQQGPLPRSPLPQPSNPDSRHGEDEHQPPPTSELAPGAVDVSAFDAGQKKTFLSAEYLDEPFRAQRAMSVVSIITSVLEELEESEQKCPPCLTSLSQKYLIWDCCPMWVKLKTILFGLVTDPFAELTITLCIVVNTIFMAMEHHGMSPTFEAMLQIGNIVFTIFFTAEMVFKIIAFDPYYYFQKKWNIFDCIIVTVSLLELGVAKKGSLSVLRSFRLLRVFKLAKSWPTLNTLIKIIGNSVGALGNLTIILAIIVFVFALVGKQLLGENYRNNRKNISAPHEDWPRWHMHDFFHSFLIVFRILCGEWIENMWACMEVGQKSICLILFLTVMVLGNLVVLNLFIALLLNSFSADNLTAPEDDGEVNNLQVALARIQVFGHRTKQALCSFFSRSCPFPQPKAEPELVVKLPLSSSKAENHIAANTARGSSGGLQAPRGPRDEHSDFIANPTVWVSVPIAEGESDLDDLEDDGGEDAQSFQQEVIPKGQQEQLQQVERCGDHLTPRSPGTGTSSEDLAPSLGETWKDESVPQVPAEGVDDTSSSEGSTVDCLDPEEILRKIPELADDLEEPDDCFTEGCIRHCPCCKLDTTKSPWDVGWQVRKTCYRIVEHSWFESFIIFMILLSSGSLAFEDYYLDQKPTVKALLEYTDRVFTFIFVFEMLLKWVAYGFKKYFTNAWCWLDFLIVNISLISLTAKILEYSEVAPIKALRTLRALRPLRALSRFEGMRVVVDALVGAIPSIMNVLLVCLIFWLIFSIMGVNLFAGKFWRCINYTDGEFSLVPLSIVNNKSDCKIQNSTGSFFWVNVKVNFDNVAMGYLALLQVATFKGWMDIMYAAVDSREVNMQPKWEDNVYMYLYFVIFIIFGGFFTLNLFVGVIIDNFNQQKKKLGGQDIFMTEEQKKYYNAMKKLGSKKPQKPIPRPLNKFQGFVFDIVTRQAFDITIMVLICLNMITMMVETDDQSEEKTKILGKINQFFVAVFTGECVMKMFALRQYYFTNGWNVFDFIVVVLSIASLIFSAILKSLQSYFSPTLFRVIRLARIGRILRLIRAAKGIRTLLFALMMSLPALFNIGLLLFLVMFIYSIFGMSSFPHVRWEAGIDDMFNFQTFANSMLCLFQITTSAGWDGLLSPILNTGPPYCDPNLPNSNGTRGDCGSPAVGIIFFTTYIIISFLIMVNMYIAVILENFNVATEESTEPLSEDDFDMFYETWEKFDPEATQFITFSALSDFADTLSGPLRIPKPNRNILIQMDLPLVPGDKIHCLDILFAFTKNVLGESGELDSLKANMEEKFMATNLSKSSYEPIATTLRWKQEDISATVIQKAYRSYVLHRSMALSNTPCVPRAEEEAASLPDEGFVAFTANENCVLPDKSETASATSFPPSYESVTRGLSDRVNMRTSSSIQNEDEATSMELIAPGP
- assay-method-text: Inhibition of human Nav1.8 expressed in HEK293 cells assessed as reduction in blue fluorescent signal by VSP-FRET assay
- Format: cell-based
Please assign 0 (no) whenever IC50 is at or above 4 µM, and 1 (yes) whenever it is below.

Solved entries (count: 5):
# smiles-text, label-class
records = [
    ("CNC(=O)c1cnc(N)c(-c2cc(Cl)cc(Cl)c2Cl)c1", "0 (no)"),
    ("Cc1nocc1C(=O)Nc1ccc(-c2ccccc2OC(F)(F)F)c(N)n1", "1 (yes)"),
    ("CNC(=O)c1ccc(-c2cc(Cl)cc(Cl)c2Cl)c(N)n1", "1 (yes)"),
    ("CNC(=O)c1ccc(-c2ccccc2Cl)c(N)n1", "0 (no)"),
    ("Cn1nccc1C(=O)Nc1ccc(-c2cc(Cl)ccc2Cl)c(N)n1", "1 (yes)"),
]

Ask | Would you kindly verify if IC50 of COc1ccc(Cl)c(-c2ccc(NC(=O)c3conc3C)nc2N)c1 is strictly less than 4 µM?
Reply | 1 (yes)

Ask | Would you kindly verify if IC50 of CNC(=O)c1ccc(-c2ccc(Cl)cc2)c(N)n1 is strictly less than 4 µM?
Reply | 0 (no)

Ask | Would you kindly verify if IC50 of CNC(=O)c1ccc(-c2cc(Cl)ccc2Cl)c(N)n1 is strictly less than 4 µM?
Reply | 0 (no)

Ask | Would you kindly verify if IC50 of COc1ccc(Cl)c(-c2ccc(NC(=O)c3ccnn3C)nc2N)c1 is strictly less than 4 µM?
Reply | 1 (yes)

Ask | Would you kindly verify if IC50 of COc1ccc(Cl)cc1-c1ccc(NC(=O)c2ccnn2C)nc1N is strictly less than 4 µM?
Reply | 0 (no)

Ask | Would you kindly verify if IC50 of Cn1nccc1C(=O)Nc1ccc(-c2ccccc2OC(F)(F)F)c(N)n1 is strictly less than 4 µM?
Reply | 1 (yes)

Ask | Would you kindly verify if IC50 of CC(=O)Nc1ccc(-c2cc(Cl)cc(Cl)c2Cl)c(N)n1 is strictly less than 4 µM?
Reply | 1 (yes)

src = ChEMBL document CHEMBL3588833
